These entries and their values trace back to patent US11198695B2.

target: recombinant human MGAT2 (Homo sapiens (Human), UniProt Q3SYC2); assay: Measurement of human MGAT2 inhibitory activity; format: biochemical; details: read-out: IC50 (concentration exhibiting 50% enzyme inhibition), Table 53
Sequence (Q3SYC2 whole entry): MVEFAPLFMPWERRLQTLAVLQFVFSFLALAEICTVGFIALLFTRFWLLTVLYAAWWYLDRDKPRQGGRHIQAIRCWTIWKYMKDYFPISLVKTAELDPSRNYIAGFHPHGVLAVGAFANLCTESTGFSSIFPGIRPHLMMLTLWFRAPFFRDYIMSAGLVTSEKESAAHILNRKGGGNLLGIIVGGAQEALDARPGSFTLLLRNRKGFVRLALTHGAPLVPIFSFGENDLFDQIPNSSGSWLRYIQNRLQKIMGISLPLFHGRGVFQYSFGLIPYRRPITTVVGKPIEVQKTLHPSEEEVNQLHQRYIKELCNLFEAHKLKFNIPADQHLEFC
measured-attribute: IC50 (nM)
Field format: number, assumed nM, no unit text.

Task item: If you can, please state the reported IC50 value of N#Cc1ccc(-n2nc3c(c2C(=O)NCC2(C(F)(F)F)CC2)C(=O)N[C@@]2(CCc4cc(OCC(F)(F)F)ccc42)C3)nc1 [II-191] .
Reply: 91.2

Task item: If you can, please state the reported IC50 value of CS(=O)(=O)CC(=O)Nc1c2c(nn1-c1ccc(F)c(F)c1)C[C@]1(CCOc3cc(OCC(F)(F)F)ccc31)NC2=O [II-67] .
Reply: 2.64

Task item: If you can, please state the reported IC50 value of Cc1ccc(-n2nc3c(c2C(=O)NS(=O)(=O)C2CC2)C(=O)N[C@@](c2ccc(OCC(F)(F)F)cc2F)(C(F)(F)F)C3)nc1 [II-274] .
Reply: 6.67

----------
molecular target: recombinant human MGAT2 (Homo sapiens (Human), UniProt Q3SYC2); assay: Measurement of human MGAT2 inhibitory activity; assay type: biochemical; conditions: read-out: IC50 (concentration exhibiting 50% enzyme inhibition), Table 52
measured-attribute: IC50

Task item: If you can, please state the reported IC50 value of COCCS(=O)(=O)NC(=O)c1c2c(nn1CCC1CC1)C[C@]1(CCc3cc(OCC(F)(F)F)ccc31)NC2=O [Compound I-112] .
Reply: 0.0445 µM

Task item: If you can, please state the reported IC50 value of O=C1N[C@@]2(CCc3cc(OCC(F)(F)F)ccc32)Cc2nn(CCC3CC3)c(CNC(=O)C3(O)CC3)c21 [Compound I-156] .
Reply: 0.92 µM

Task item: If you can, please state the reported IC50 value of CS(=O)(=O)CC(=O)Nc1c2c(nn1C1CCCCC1)C[C@]1(CCc3cc(OCC(F)(F)F)ccc31)NC2=O [Compound I-96] .
Reply: 0.054 µM

Task item: If you can, please state the reported IC50 value of CS(=O)(=O)CC(=O)Nc1c2c(nn1CCC1CC1)C[C@]1(CCc3cc(N4CC(C(F)(F)F)C4)ccc31)NC2=O [Compound I-234] .
Reply: 0.0098 µM

Task item: If you can, please state the reported IC50 value of CS(=O)(=O)CC(=O)Nc1c2c(nn1-c1ccccn1)C[C@]1(CCc3cc(OCC(F)(F)F)cc(F)c31)NC2=O [Compound I-185] .
Reply: 0.0063 µM

Task item: If you can, please state the reported IC50 value of O=C1N[C@@]2(CCc3cc(OCC(F)(F)F)ccc32)Cc2nn(CCC3CC3)c(CNC(=O)C3CCCC3)c21 [Compound I-82] .
Reply: 0.23 µM

Task item: If you can, please state the reported IC50 value of CS(=O)(=O)CC(=O)Nc1c2c(nn1-c1cccc(Cl)c1)C[C@]1(CCc3cc(OCC(F)(F)F)ccc31)NC2=O [Compound I-124] .
Reply: 0.022 µM

Task item: If you can, please state the reported IC50 value of COCCCS(=O)(=O)NC(=O)c1c2c(nn1CCC1CC1)C[C@]1(CCc3cc(OCC(F)(F)F)ccc31)NC2=O [Compound I-114] .
Reply: 0.11 µM

Task item: If you can, please state the reported IC50 value of CC(C)NC(=O)Nc1c2c(nn1CCC1CC1)C[C@]1(CCc3cc(OCCCC(F)(F)F)ccc31)NC2=O [Compound I-14] .
Reply: 0.38 µM

Task item: If you can, please state the reported IC50 value of CS(=O)(=O)CC(=O)Nc1c2c(nn1CCn1cccn1)C[C@]1(CCc3cc(OCCCC(F)(F)F)ccc31)NC2=O [Compound I-59] .
Reply: 0.014 µM

Task item: If you can, please state the reported IC50 value of CNC(=O)c1c2c(nn1CCC1CC1)C[C@]1(CCc3cc(OCCCC(F)(F)F)ccc31)NC2=O [Compound I-11] .
Reply: 0.5 µM

Task item: If you can, please state the reported IC50 value of O=C(Nc1c2c(nn1CCC1CC1)C[C@]1(CCc3cc(OCC(F)(F)F)ccc31)NC2=O)c1ccccn1 [Compound I-79] .
Reply: 0.86 µM

Task item: If you can, please state the reported IC50 value of O=C1N[C@@]2(CCc3cc(OCC(F)(F)F)ccc32)Cc2nn(CCC3CC3)c(CNC(=O)C3CCC3)c21 [Compound I-147] .
Reply: 0.039 µM

Task item: If you can, please state the reported IC50 value of CCOCCS(=O)(=O)NC(=O)c1c2c(nn1CCC1CC1)C[C@]1(CCc3cc(OCC(F)(F)F)ccc31)NC2=O [Compound I-115] .
Reply: 0.064 µM
